Target: LcrF (VirF) (Yersinia pestis)
Sequence (P28808 whole entry, looked up): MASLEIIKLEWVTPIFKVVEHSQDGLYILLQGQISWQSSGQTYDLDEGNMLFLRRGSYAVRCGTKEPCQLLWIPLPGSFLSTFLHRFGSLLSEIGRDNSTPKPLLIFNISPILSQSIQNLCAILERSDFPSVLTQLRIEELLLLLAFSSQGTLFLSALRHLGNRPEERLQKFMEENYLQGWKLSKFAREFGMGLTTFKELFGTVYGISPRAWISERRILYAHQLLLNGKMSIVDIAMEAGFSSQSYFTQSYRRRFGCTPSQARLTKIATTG
Test: biochemical
Type: binding, Y. pseudotuberculosis
Conditions: EC50 for inhibition of LcrF(VirF)-DNA binding
pEC50: −log10 of the molar value.
metric-name: pEC50

• O=C(C/C=C/c1ccccc1)Nc1ccc(-c2nc3ccc([N+](=O)[O-])cc3n2O)cc1 = < 4.60

Task item: // fetch pEC50 given entry Cc1cccc(C(=O)Nc2ccc(-c3nc4ccc([N+](=O)[O-])cc4n3O)cc2)c1
Reply: < 4.60

Task item: // fetch pEC50 given entry Cc1cc(-c2nc3ccc([N+](=O)[O-])cc3n2O)ccc1NC(=O)/C=C/c1ccc(F)cc1
Reply: 4.60 to 5.00

Task item: // fetch pEC50 given entry O=C(Cc1ccc(F)cc1)Nc1ccc(-c2nc3ccc([N+](=O)[O-])cc3n2O)cc1
Reply: < 4.60

---

Molecular target: SoxS (Escherichia coli)
Assay: Chemiluminescence-based SoxS-DNA binding assay
Set-up: made in house; species or system E. coli
Conditions: read-out: % Inhibition (SoxS binding to DNA)
metric-name: inhibition at 50 µg/mL

Task item: // fetch inhibition at 50 µg/mL given entry O=[N+]([O-])c1ccc2nc(-c3ccccc3)n(OCCO)c2c1 [AS]
Reply: < 0%

Task item: // fetch inhibition at 50 µg/mL given entry On1c(-c2ccccc2)nc2ccccc21 [AT]
Reply: < 0%

Task item: // fetch inhibition at 50 µg/mL given entry N#Cc1ccc2nc(-c3ccccc3)n(O)c2c1 [BC]
Reply: 30 to 69%

Task item: // fetch inhibition at 50 µg/mL given entry O=C(O)CCn1c(-c2ccccc2)nc2ccc([N+](=O)[O-])cc21 [AO]
Reply: < 0%

Task item: // fetch inhibition at 50 µg/mL given entry O=C(NCc1ccc(-c2nc3ccc([N+](=O)[O-])cc3n2O)cc1)c1ccccc1 [CD]
Reply: 30 to 69%

Task item: // fetch inhibition at 50 µg/mL given entry CS(=O)(=O)c1ccc2nc(-c3ccccc3)n(O)c2c1 [BI]
Reply: 30 to 69%

---

Target: SoxS (Escherichia coli, UniProt P0A9E2)
Sequence (P0A9E2 1-107): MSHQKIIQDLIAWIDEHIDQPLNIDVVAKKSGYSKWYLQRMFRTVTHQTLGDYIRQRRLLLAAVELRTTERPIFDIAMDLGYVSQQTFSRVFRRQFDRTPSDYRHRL
Test: Chemiluminescence-based SoxS-DNA binding assay
Set-up: made in house; species or system E. coli
Details: read-out: % Inhibition (SoxS binding to DNA)
Listed next: entries and their corresponding inhibition at 50 µg/mL.

Some solved entries appear below for comparison.
• O=[N+]([O-])c1ccc2nc(-c3ccc(Br)cc3)n(O)c2c1 [CA] = 0 to 29%
• O=C(O)c1ccc2nc(-c3ccccc3)n(O)c2c1 [BA] = 0 to 29%
• O=C(O)COn1c(-c2ccccc2)nc2ccccc21 [AQ] = 0 to 29%
• COn1c(-c2ccccc2)nc2ccc([N+](=O)[O-])cc21 [BR] = 0 to 29%
• O=[N+]([O-])c1ccc2nc(-c3ccccc3)n(O)c2c1 [GB] = 30 to 69%
• Nc1ccccc1-c1nc2ccc([N+](=O)[O-])cc2n1O [BN] = 0 to 29%

Task item: // fetch inhibition at 50 µg/mL given entry On1c(-c2ccccc2)nc2ccc(F)cc21 [AY]
Reply: 0 to 29%

Task item: // fetch inhibition at 50 µg/mL given entry O=[N+]([O-])c1ccc2nc(-c3ccc(Oc4ccccc4)cc3)n(O)c2c1 [BW]
Reply: 0 to 29%

Task item: // fetch inhibition at 50 µg/mL given entry CC(=NO)c1ccc2nc(-c3ccccc3)n(O)c2c1 [BJ]
Reply: 30 to 69%

Task item: // fetch inhibition at 50 µg/mL given entry NCCOn1c(-c2ccccc2)nc2ccc([N+](=O)[O-])cc21 [BE]
Reply: < 0%

Task item: // fetch inhibition at 50 µg/mL given entry COc1ccc(-c2nc3ccc([N+](=O)[O-])cc3n2O)cc1 [AV]
Reply: 0 to 29%

Task item: // fetch inhibition at 50 µg/mL given entry N#CCOn1c(-c2ccccc2)nc2ccc([N+](=O)[O-])cc21 [BD]
Reply: 0 to 29%

Task item: // fetch inhibition at 50 µg/mL given entry CC(=O)Nc1ccccc1-c1nc2ccc([N+](=O)[O-])cc2n1O [BX]
Reply: 30 to 69%

Task item: // fetch inhibition at 50 µg/mL given entry COc1ccc2nc(-c3ccccc3)n(O)c2c1 [AZ]
Reply: < 0%

Task item: // fetch inhibition at 50 µg/mL given entry CN(C)c1cccc(-c2nc3ccc([N+](=O)[O-])cc3n2O)c1 [BV]
Reply: 0 to 29%

Task item: // fetch inhibition at 50 µg/mL given entry CC(=O)Nc1cccc(-c2nc3ccc([N+](=O)[O-])cc3n2O)c1 [BT]
Reply: 30 to 69%

Task item: // fetch inhibition at 50 µg/mL given entry On1c(-c2ccccc2)nc2ccc(C(F)(F)F)cc21 [AX]
Reply: 0 to 29%

Task item: // fetch inhibition at 50 µg/mL given entry NC(=O)c1ccc2nc(-c3ccccc3)n(O)c2c1 [BB]
Reply: 0 to 29%
